Tested on: Staphylococcus aureus MR (methicillin resistant)
Assay: MIC, agar dilution method, S. aureus MR
Type: cell-based
Conditions: Mueller-Hinton agar, 35° C., 24 hours
Measured endpoint: MIC (µg/mL)

Recorded results for 3 molecules are shown here.
Molecule	Result units	MIC
CC(=O)NC[C@H]1CN(c2ccc(-c3ccc(C4(N)CC4)nc3)cc2)C(=O)O1 [Example 5]	µg/mL	0.5
CC(=O)NC[C@H]1CN(c2ccc(N3CCOCC3)c(F)c2)C(=O)O1 [Linezolid, reference compound]	µg/mL	1
N[C@@H]1[C@H]2CN(c3ccc(-c4ccc(N5C[C@H](Cn6ccnn6)OC5=O)cc4F)cn3)C[C@@H]12 [Example 32]	µg/mL	0.125

I. CC(=O)NC[C@H]1CN(c2ccc(-c3ccc(C4(C#N)CC4)nc3)c(F)c2)C(=O)O1 [Example 3]
II. N#CC1(c2ccc(-c3ccc(N4C[C@H](Cn5ccnn5)OC4=O)cc3)cn2)CC1 [Example 18]
Looking at recorded values for MIC, does I or II come in lower? Mark your selection by writing its label.
II

// data source = patent US20070185132A1
